Test system: SR leukemia
Protocol text: NCI-60 one-dose screen, 48 h
Condition notes: 10 µM unless noted
About 83,000 compounds went through this panel and 20% of them were active in at least one assay; those are over-represented in the sample as a whole. The source made the active and inactive calls. How the source made its calls: active means growth percent below 10; inactive means the rest.
Please state which outcome applies, choosing from True (active), False (inactive)

Illustrative cases are given below, each with its answer.
| Compound | Classification |
| --- | --- |
| O=C(N/N=C/c1ccc([N+](=O)[O-])cc1)c1ccccc1Nc1ccnc(C(F)(F)F)c1 | False |
| CCN(CC)c1ccc2c(cc1=O)[C@@H](NC(C)=O)CCc1cc(OC)c(OC)c(OC)c1-2 | True |
| COc1cc2c(cc1OC)-c1cc(OC)c(OC)cc1C(CN(C)C)C2 (centres undefined) | False |
| CC1=C(O)C(=O)CC1 | False |
| COc1cnc2c(c1)C(=O)c1c-2n(CCCN2CCN(C)CC2)c(=O)c2cc(Cl)ccc12 | True |
| COc1ccccc1CNCCCN1C(=O)c2ccc3c4c(ccc(c24)C1=O)C(=O)N(CCCCNCCCN)C3=O | False |
| COc1ccc(C(=O)OC2C(OC3C(O)COC(O[C@H]4C[C@H]5[C@@H]6CC=C7C[C@@H](O)CC[C@]7(C)[C@H]6CC[C@]5(C)[C@H]4[C@H](C)C(=O)CCC(C)C)C3OC(C)=O)OCC(O)C2O)cc1 (some centres undefined) | True |
| O=c1c2cc(Cl)ccc2oc2ccc(OCCCCCN3CCCCC3)cc12 | True |

Please turn your attention to the following entry.
Record request — test call for `CCC(=O)NC1=C(Cl)C(=O)C(NC(=O)CC)=C(Cl)C1=O`
True

---

System: SNB-19 CNS
Protocol text: NCI-60 one-dose screen, 48 h
Condition notes: 10 µM unless noted
About 83,000 compounds went through this panel and 20% of them were active in at least one assay; those are over-represented in the sample as a whole. Calls of active or inactive are those of the source. How the source made its calls: active means growth percent below 10; inactive means the rest.
Outcome (select one): active, inactive

For orientation, consider the following solved cases.
| Molecule | Classification |
| --- | --- |
| O=C(N/N=C\c1cc(Br)ccc1O)c1ccncc1 | inactive |
| Clc1ccc(Cl)c(N=Cc2ccc3c(c2)OCO3)c1 | inactive |
| COc1cc(OC)cc(-c2ccc(-c3ccc(C(=N)N)s3)s2)c1 | active |
| C=CCOC(=O)C1=C(C)NC2=C(C(=O)CC(C)(C)C2)C1c1ccc(OC)cc1 (centres undefined) | inactive |
| O=C(c1ccc(OCCN2CCCCC2)cc1)c1c(-c2ccc(O)cc2)sc2cc(O)ccc12 | inactive |
| C=CCN(CC#N)CC=C | inactive |

Would you kindly look at the next entry?
Record lookup: outcome of this test for `COc1ccc(-c2cc(-c3ccc(OC)cc3)c3sc(=O)[nH]c3n2)cc1` ?
inactive

---

Tested on: CCRF-CEM leukemia
Protocol text: NCI-60 one-dose screen, 48 h
Condition notes: 10 µM unless noted
This is part of a sample that, as a whole, favours compounds with a hit. Of some 83,000 tested, about 20% had one in any assay. Calls of active or inactive are those of the source. The calls were made as follows: active = growth percent below 10; inactive = the rest.
Please reply with one of these outcomes: active, inactive

Known results for compounds:
| Compound | Classification |
| --- | --- |
| CCN(CC)CCNC(=O)n1cc(-c2ccncc2)c(-c2cc(Cl)cc(OC)c2)n1 | inactive |
| Cn1cnc([N+](=O)[O-])c1S(=O)(=O)Oc1cccc2ccccc12 | active |
| Nc1nc(N)c2cc(NCc3ccc(Cl)c(Cl)c3)ccc2n1 | active |
| COc1ccc(Cl)cc1Nc1nc(C(F)(F)F)ccc1C(=O)NN | active |
| C=CC(=O)N1CN(C(=O)C=C)CN(C(=O)C=C)C1 | inactive |

// next entry
Check the results log: what was the call for Oc1c(C(Nc2cccc3ccccc23)c2ccccc2)ccc2cccnc12 (stereo unspecified) ?
inactive

---

Recorded growth for the following compounds
System: NCI-H322M lung
Protocol text: NCI-60 one-dose screen, 48 h (100 = growth as untreated, 0 = no growth, -100 = all killed)
Condition notes: 10 µM unless noted
Compounds without any hit were thinned out: in the full panel of roughly 83,000, 20% have a hit.
Kindly answer with a numeric value in %, unit omitted.

| Compound | Target system | Result value |
| --- | --- | --- |
| Fc1ccc(-c2cnc3nonc3n2)c(F)c1 | NCI-H322M lung | 98.4 |
| CN(C)CC(=O)c1ccc2cc(Br)c3ccccc3c2c1 | NCI-H322M lung | 75.7 |
| COc1ccc(Nc2nc(N)nc3c(=O)[nH]ccc23)cc1 | NCI-H322M lung | 103 |
| COc1cc(Nc2ncccc2/C=C/C(=O)c2cc(OC)c(OC)c(OC)c2)cc(OC)c1OC | NCI-H322M lung | 102 |
| O=C(CCCCCCN1CC(=O)N2[C@@H](c3ccc(Cl)c(Cl)c3)c3[nH]c4ccccc4c3C[C@H]2C1=O)NO | NCI-H322M lung | 53.5 |

What is its growth for NCI-H322M lung? Entry: `COC1(OC)C2(Cl)CCC1(Cl)C(Cl)=C2Cl`
100

Hello, I am looking for reported growth with NCI-H322M lung for CCOC(=O)C(Cc1ccccc1)n1c(O)c(/C=N/c2ncc(Cc3ccc(Cl)cc3Cl)s2)sc1=S (stereo not given) . Could you help?
15.7

Give the reported growth for `CC1=C(/C=C/C(C)=C/C=C(C(=O)O)\C(C)=C\C(=O)O)C(C)(C)CCC1` (system: NCI-H322M lung).
103

Which measured growth belongs to CCCCCCCCOC(=O)C(C)OC(=O)OCCOCCOC(=O)OC(C)C(=O)OCCCCCCCC (stereo not given) , tested on NCI-H322M lung?
92.4

Reported growth for NCI-H322M lung, given Cc1nc(N)nc2c1CCC(Nc1ccccc1)S2 (stereo not given) ?
101

---

System: SF-295 CNS
Protocol text: NCI-60 one-dose screen, 48 h (100 = growth as untreated, 0 = no growth, -100 = all killed)
Condition notes: 10 µM unless noted
Compounds without any hit were thinned out: in the full panel of roughly 83,000, 20% have a hit.
The entries below come with measured growth values attached.
Give a bare numeral; the unit % is implied.

| Molecule | Unit annotation | growth |
| --- | --- | --- |
| COc1cc(NCCC2CCCCN2)c2ncccc2c1OC (stereo not given) | % | 110 |

Entry COc1cc(C2C(C#N)=C(N)Oc3cc4c(cc32)OCO4)cc2c1OCO2 (stereo not given) , system SF-295 CNS: what growth was measured?
9.43

Fill in the recorded growth for this molecule, with SF-295 CNS as test system: CC1=CC(=O)OC1C/C=C(\C)CCC1[C@@]2(C)CCC[C@@](C)(C(=O)O)C2CC[C@@]1(C)O (stereo not given in full)
85.5

// fetch SF-295 CNS growth for Cc1ccccc1C1CC(=O)c2ccccc2C1C (stereo not given)
96.3

Notebook: pull reported growth for SF-295 CNS, entry `O=C(O)CSc1ccc(NCc2oc(CO)cc(=O)c2O)cc1`
106

Write down the reported growth of `Oc1ccc(-c2nc3ccccc3s2)cc1CN(Cc1ccccn1)Cc1ccccn1` , test system: SF-295 CNS.
13.5

Param readout = growth; param system = SF-295 CNS; param query = `C=C(c1ccc(C(=O)NCCCn2ccnc2)cc1)c1cc2c(cc1C)C(C)(C)CCC2(C)C` ; response: value
-29.6

Form: Entry = `CCN(CC)c1ccc2c(cc1=O)[C@@H](NC(C)=O)CCc1cc(OC)c(OC)c(OC)c1-2` | System = SF-295 CNS | growth = ____
11.3

Item: `CN1CCC2(CC1)N=C(SCC(=O)Nc1cnc3ccccc3c1)C(c1ccc(Br)cc1)=N2` Test system: SF-295 CNS Read-out: growth Value: ?
28

Could you share what growth was measured for `COc1cc(OC)c2sc(-c3ccc(-n4cncc4-c4ccc(OC)c(N)c4)cc3)nc2c1` , tested on SF-295 CNS?
69.4

---

System: MDA-MB-435 melanoma
Protocol text: NCI-60 one-dose screen, 48 h
Condition notes: 10 µM unless noted
This is part of a sample that, as a whole, favours compounds with a hit. Of some 83,000 tested, about 20% had one in any assay. Activity calls are given as the source filed them. How the source made its calls: active means growth percent below 10; inactive means the rest.
Pick one: true (active), false (inactive)

Look over these answered cases.
| Compound | Classification |
| --- | --- |
| CCOCCNc1ccc(S(=O)(=O)c2ccc(N)cc2)cc1N | false |
| Cc1nn(-c2cccc(Cl)c2)c(C)c1N=Nc1ccc(Br)cc1 | false |
| CC(C)CCSc1nc(-c2ccc(F)cc2)c(C#N)c(N2CCN(C)CC2)n1 | false |

What classification did `O=C1c2cccc3cccc(c23)C(=O)N1CCCCCCCCCCN1C(=O)c2cccc3cccc(c23)C1=O` end up with in this test?
false

What classification did `CC(C)(C)c1ccc(OC(=O)Nc2ccccc2)cc1` end up with in this test?
false

Identify the outcome logged in this assay for the compound shown: `CCCCCCCCCCCCCCCCCC(=O)OCCCCCCCCCCCCC`
false

Tell me the assay call for `CSc1ccc(/C=C2\C=C(CC(=O)NCc3ccc(C(=O)c4ccccc4)cc3)c3cc(F)ccc32)cc1` please.
true

Which outcome did this test record for the compound `C[C@@H]1N=C(c2ccc3ccccc3c2)Nc2nc3ccccn3c2C1=O` ?
true

Returns: the outcome recorded for `O=C(/C=C/c1ccco1)c1ccccc1O` in this assay.
false

Hello, I am checking results. What call was entered for `CC(C)[C@@]12C[C@@H](OC(=O)[C@H]3CO3)[C@@](C)(O1)[C@@H]1CC[C@@H](C)[C@H]1[C@@H]2OC(=O)/C=C/c1ccccc1` ?
false

What call does the record list for `C=C(C)[C@@H]1CC[C@]2(C(=O)O)CC[C@]3(C)[C@H](CC[C@@H]4[C@@]5(C)C[C@@H](CC#Cc6ccc(C(C)=O)s6)[C@H](O)C(C)(C)[C@@H]5CC[C@]43C)[C@@H]12` ?
false

Which outcome did this test record for the compound `Clc1ccc(Cl)c(N=Cc2ccc3c(c2)OCO3)c1` ?
false

Tell me the assay call for CN1C(=O)N(C)C2C1NN=c1s/c(=C\c3ccsc3)c(=O)n12 (stereo not given) please.
true
